- procedureText: in vitro
- experimentalParameters: human, CEM/0 cells (wild-type CD4+ T-cells)

# molecule, relation, CC50 [µM]
records = [
    ("CCCCCCCCCCCCCCCCCCOP(=O)(OCc1ccc(OC(=O)CCCC)cc1)OP(=O)(O)OP(=O)(O)OCC1OC(n2cc(C)c(=O)[nH]c2=O)CC1N=[N+]=[N-] (centres unmarked) [10by, γ‐(AB‐C4;alkyl‐C18)‐AZTTP]", "=", 60.1),
    ("CCCCCCCCCCCCCCCCCCP(=O)(OCCCC)OP(=O)(O)OP(=O)(O)OC[C@H]1O[C@@H](n2cc(C)c(=O)[nH]c2=O)C[C@@H]1N=[N+]=[N-] (some centres unmarked) [10bx]", ">", 100),
    ("CCCCCCCCCCCCCCCCCCOP(=O)(O)OP(=O)(O)OP(=O)(O)OC[C@H]1O[C@@H](n2cc(C)c(=O)[nH]c2=O)C[C@@H]1F [20f, γ‐C18‐FLTTP]", ">", 100),
    ("CCCCCCCCCCCCCCCCCCOP(=O)(OCc1ccc(OC(=O)CCCC)cc1)OP(=O)(O)OP(=O)(O)OC[C@@H]1C=C[C@H](n2cnc3c(NC4CC4)nc(N)nc32)C1 (some centres unmarked) [10hy]", ">", 100),
    ("CCCCCCCCCCCCCCCCCCOP(=O)(OCCCC)OP(=O)(O)OP(=O)(O)OC[C@H]1O[C@@H](n2cc(Cl)c(=O)[nH]c2=O)C[C@@H]1F (some centres unmarked) [10dv]", "=", 50.1),
    ("CCCCCCCCCCCCCCCCCCOP(=O)(OCC(CC)CCCC)OP(=O)(O)OP(=O)(O)OC[C@H]1O[C@@H](n2cc(C)c(=O)[nH]c2=O)C[C@@H]1F (some centres unmarked) [10ew]", "=", 52.6),
    ("CCCCCCCCCCCCCCCCCCOP(=O)(OCCCC)OP(=O)(O)OP(=O)(O)OC[C@H]1O[C@@H](n2cc(/C=C/Br)c(=O)[nH]c2=O)C[C@@H]1O (some centres unmarked) [10gv]", "=", 48),
    ("CCCCCCCCCCCCCCCCCCOP(=O)(OCc1ccc(OC(=O)CCCC)cc1)OP(=O)(O)OP(=O)(O)OC[C@@H]1O[C@H](n2cc(F)c(N)nc2=O)CS1 (some centres unmarked) [10cy, γ‐(AB‐C4;alkyl‐C18)‐FTCTP]", "=", 51.9),
    ("CCCCCCCCCCCCCCCCCCOP(=O)(OCc1ccc(OC(=O)CCCC)cc1)OP(=O)(O)OP(=O)(O)OC[C@H]1O[C@@H](n2cc(/C=C/Br)c(=O)[nH]c2=O)C[C@@H]1O (some centres unmarked) [10gy]", "=", 52.1),
    ("CCCCCCCCCCCCCCCCCCOP(=O)(O)OP(=O)(O)OP(=O)(O)OCC1OC(n2cc(C)c(=O)[nH]c2=O)CC1N=[N+]=[N-] (centres unmarked) [20b, γ‐(alkyl‐C18)‐AZTTP]", ">", 100),
    ("CCCCCCCCCCCCCCCCCCP(=O)(OCc1ccc(OC(=O)CCCC)cc1)OP(=O)(O)OP(=O)(O)OC[C@H]1O[C@@H](n2cc(C)c(=O)[nH]c2=O)C[C@@H]1F (some centres unmarked) [10ez]", "=", 45.3),
]

---

- System: HIV‐2 [ROD]
- procedureText: Anti-HIV activity, HIV-2 in wild-type CEM/0 cells
- Assay type: cell-based
- experimentalParameters: Human immunodeficiency virus 2, CCRF-CEM; wild-type CEM/0 cells, mean ±SD n = 2–3; read-out: Antiviral activity CEM/0 HIV‐2 [ROD] EC50
Listed here: items and their measured EC50.
reportedProperty: EC50 (nM)

# compound, reportedProperty, unitAbbreviation, reportedMeasurement
measured = [
    ("CCCCCCCCCCCCCCCCCCOP(=O)(OCCCC)OP(=O)(O)OP(=O)(O)OC[C@@H]1C=C[C@H](n2cnc3c(NC4CC4)nc(N)nc32)C1 (some centres unmarked) [10hv, γ‐(C4;C18)‐ABCTP]", "EC50", "nM", 46),
    ("CCCCCCCCCCCCCCCCCCP(=O)(OCc1ccc(OC(=O)CCCC)cc1)OP(=O)(O)OP(=O)(O)OC[C@H]1O[C@@H](n2cc(/C=C/Br)c(=O)[nH]c2=O)C[C@@H]1O (some centres unmarked) [10gz]", "EC50", "nM", 8010),
    ("CCCCCCCCCCCCCCCCCCOP(=O)(O)OP(=O)(O)OP(=O)(O)OC[C@H]1O[C@@H](n2cc(Cl)c(=O)[nH]c2=O)C[C@@H]1F [20d]", "EC50", "nM", 2240),
    ("CCCCCCCCCCCCCCCCCCP(=O)(OCc1ccc(OC(=O)CCCC)cc1)OP(=O)(O)OP(=O)(O)OC[C@@H]1C=C[C@H](n2cnc3c(NC4CC4)nc(N)nc32)C1 (some centres unmarked) [10hz, γ‐(AB‐C4)‐γ‐C‐(alkyl‐C18)‐ABCTP]", "EC50", "nM", 170),
    ("Cc1cn([C@H]2C[C@H](N=[N+]=[N-])[C@@H](CO)O2)c(=O)[nH]c1=O [1b (AZT), AZT, reference compound]", "EC50", "nM", 3.4),
]

---

List of half-life at 0.86 mM values.
- procedureText: in vitro
- experimentalParameters: human, plasma, t 1/2 in human plasma (over heparin and citrate plasma)
reportedProperty: half-life at 0.86 mM

# compound, reportedProperty, reportedMeasurement
records = [
    ("CCCCCCCCCCCCCCCCCCOP(=O)(OCCCC)OP(=O)(O)OP(=O)(O)OC[C@@H]1C=C[C@H](n2cnc3c(NC4CC4)nc(N)nc32)C1 (stereo partly drawn) [10hv, γ‐(C4;C18)‐ABCTP]", "half-life at 0.86 mM", "> 8 h"),
    ("CCCCCCCCCCCCCCCCCCP(=O)(OCc1ccc(OC(=O)CCCC)cc1)OP(=O)(O)OP(=O)(O)OC[C@@H]1C=C[C@H](n2cnc3c(NC4CC4)nc(N)nc32)C1 (stereo partly drawn) [10hz, γ‐(AB‐C4)‐γ‐C‐(alkyl‐C18)‐ABCTP]", "half-life at 0.86 mM", "4.1 to 5.6 h"),
    ("Cc1cn([C@H]2C[C@H](N=[N+]=[N-])[C@@H](COP(=O)(O)OP(=O)(O)O)O2)c(=O)[nH]c1=O [AZTDP, reference compound]", "half-life at 0.86 mM", "2.8 to 6.4 h"),
    ("CCCCCCCCCCCCCCCCCCP(=O)(OCCCC)OP(=O)(O)OP(=O)(O)OC[C@@H]1C=C[C@H](n2cnc3c(NC4CC4)nc(N)nc32)C1 (stereo partly drawn) [10hx]", "half-life at 0.86 mM", "> 8 h"),
    ("CCCCCCCCCCCCCCCCCCOP(=O)(OCCCC)OP(=O)(O)OP(=O)(O)OC[C@H]1O[C@@H](n2cc(C)c(=O)[nH]c2=O)C[C@@H]1N=[N+]=[N-] (stereo partly drawn) [10bv, γ‐(alkyl‐C4;alkyl‐C18)‐AZTTP]", "half-life at 0.86 mM", "> 8 h"),
    ("CCCCCCCCCCCCCCCCCCP(=O)(OCc1ccc(OC(=O)CCCC)cc1)OP(=O)(O)OP(=O)(O)OC[C@H]1O[C@@H](n2cc(C)c(=O)[nH]c2=O)C[C@@H]1N=[N+]=[N-] (stereo partly drawn) [10bz, γ‐(AB‐C4)‐γ‐C‐(alkyl‐C18)‐AZTTP]", "half-life at 0.86 mM", "4.4 to 7.6 h"),
]

---

- procedureText: Chemical hydrolysis in phosphate buffer saline (PBS, pH 7.3)
- Format: physicochemical
- experimentalParameters: PBS pH 7.3, 37 °C, read-out: PBS pH 7.3 t 1/2 (converted)
- Description: Part 4. Chemical Hydrolysis of TriPPPro-compounds 10 and 20. Second prepare 1.9 mM hydrolysis […] Then, aliquots of 50 µL human
Reported half-life at 1.9 mM values for the following compounds.
reportedProperty: half-life at 1.9 mM

# compound, reportedMeasurement
measured = [
    ("CCCCCCCCCCCCCCCCCCOP(=O)(OCCCC)OP(=O)(O)OP(=O)(O)OC[C@@H]1O[C@H](n2cc(F)c(N)nc2=O)CS1 (stereo partly drawn) [10cv, γ‐(C4;C18)‐FTCTP]", "> 83.3 days"),
    ("CCCCCCCCCCCCCCCCCCOP(=O)(O)OP(=O)(O)OP(=O)(O)OC[C@@H]1O[C@H](n2cc(F)c(N)nc2=O)CS1 [20c, γ‐C18‐FTCTP]", "> 83.3 days"),
    ("CCCCCCCCCCCCCCCCCCP(=O)(OCCCC)OP(=O)(O)OP(=O)(O)OC[C@H]1O[C@@H](n2cc(C)c(=O)[nH]c2=O)C[C@@H]1F (stereo partly drawn) [10ex]", "6.17 days"),
    ("CCCCCCCCCCCCCCCCCCP(=O)(OCCCC)OP(=O)(O)OP(=O)(O)OC[C@H]1O[C@@H](n2cc(Cl)c(=O)[nH]c2=O)C[C@@H]1F (stereo partly drawn) [10dx]", "> 83.3 days"),
    ("CCCCCCCCCCCCCCCCCCOP(=O)(O)OP(=O)(O)OP(=O)(O)OC[C@H]1O[C@@H](n2cc(Cl)c(=O)[nH]c2=O)C[C@@H]1F [20d]", "> 83.3 days"),
    ("CCCCCCCCCCCCCCCCCCOP(=O)(OCCCC)OP(=O)(O)OP(=O)(O)OC[C@H]1O[C@@H](n2cc(/C=C/Br)c(=O)[nH]c2=O)C[C@@H]1O (stereo partly drawn) [10gv]", "> 83.3 days"),
]
